B1: ZNF263 (parent)
chain: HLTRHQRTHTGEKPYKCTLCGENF

# Variants of: B1
# Assay Info: protein stability index of a GFP-peptide fusion (GPS, HEK-293T) (PSI 1-6); higher = more stable;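 further: lentivirally expressed fusions sorted by FACS into six bins by GFP to DsRed ratio, PSI derived from sequencing read proportions per bin multiplied by bin number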
# Assay Context: c terminus: a fixed tail appended
If the reported protein stability index equals or exceeds 3, assign met. If not, assign not met.

Problem: Given the entry E22V , answer whether its protein stability index meets or surpasses 3.
Result: not met

Problem: Given the entry H1L , answer whether its protein stability index meets or surpasses 3.
Result: met

Problem: Given the entry L19T , answer whether its protein stability index meets or surpasses 3.
Result: met

Problem: Given the entry T18I , answer whether its protein stability index meets or surpasses 3.
Result: not met

Problem: Given the entry L2P , answer whether its protein stability index meets or surpasses 3.
Result: met

Problem: Given the entry Y15K , answer whether its protein stability index meets or surpasses 3.
Result: met

Problem: Given the entry E22H , answer whether its protein stability index meets or surpasses 3.
Result: met

Problem: Given the entry R4S , answer whether its protein stability index meets or surpasses 3.
Result: met
